Target or test system: OPRD1 (Homo sapiens)
Construct: purchased Promega (in-house HiBiT-GPCR construct library, NanoBRET)
Sequence (P41143 whole entry): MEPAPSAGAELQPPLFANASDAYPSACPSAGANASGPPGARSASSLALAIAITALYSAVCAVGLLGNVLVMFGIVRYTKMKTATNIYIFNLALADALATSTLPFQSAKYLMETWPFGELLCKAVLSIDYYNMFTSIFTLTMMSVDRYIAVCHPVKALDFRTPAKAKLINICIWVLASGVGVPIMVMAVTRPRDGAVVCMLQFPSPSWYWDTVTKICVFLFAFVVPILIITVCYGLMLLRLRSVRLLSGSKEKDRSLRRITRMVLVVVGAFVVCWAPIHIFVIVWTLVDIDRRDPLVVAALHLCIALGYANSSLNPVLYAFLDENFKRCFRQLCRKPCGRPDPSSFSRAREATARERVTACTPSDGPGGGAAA
Experiment notes: NanoBRET screen HiBiT-OPRD1 in HEK293
Format: binding
Assay conditions: OPRD1; tracer 1μM
Measured quantity: NanoBRET Fold Response

INSERT INTO assay_data (compound, result_number) VALUES
  ('COc1ccccc1N1CCN(CCCCN2C(=O)c3ccc(CNC(=O)CCOCCNC(=O)c4ccc(CNC(=O)CCc5ccc6n5[B-](F)(F)[N+]5=C(c7ccc[nH]7)C=CC5=C6)cc4)cc3C2=O)CC1', 1.17),
  ('Cc1nc2n(c(=O)c1CCN1CCC(c3noc4cc(F)ccc34)CC1)CCCC2OC(=O)NCCOCCOCCOCCOCCNC(=O)CCc1ccc2n1[B-](F)(F)[N+]1=C(c3ccc[nH]3)C=CC1=C2 (centres unmarked)', 0.99),
  ('CC(C)N(CC[C@H](c1ccccc1)c1cc(CCNC(=O)CCOCCOCCOCCOCCNC(=O)CCc2ccc3n2[B-](F)(F)[N+]2=C(c4ccc[nH]4)C=CC2=C3)ccc1O)C(C)C', 0.94),
  ('CC(C)N(CC[C@H](c1ccccc1)c1cc(CCNC(=O)c2ccc(CNC(=O)CCc3ccc4n3[B-](F)(F)[N+]3=C(c5ccc[nH]5)C=CC3=C4)cc2)ccc1O)C(C)C', 1.05),
  ('CCCn1c(=O)c2[nH]c(-c3ccc(OCC(=O)NCCNC(=O)CCOCCNC(=O)c4ccc(CNC(=O)CCc5ccc6n5[B-](F)(F)[N+]5=C(c7ccc[nH]7)C=CC5=C6)cc4)cc3)nc2n(CCC)c1=O', 0.81);

* * *

Reported NanoBRET Fold Response values for a set of compounds
Target or test system: SSTR4 (Homo sapiens)
Construct: purchased Promega (in-house HiBiT-GPCR construct library, NanoBRET)
Sequence (P31391 whole entry): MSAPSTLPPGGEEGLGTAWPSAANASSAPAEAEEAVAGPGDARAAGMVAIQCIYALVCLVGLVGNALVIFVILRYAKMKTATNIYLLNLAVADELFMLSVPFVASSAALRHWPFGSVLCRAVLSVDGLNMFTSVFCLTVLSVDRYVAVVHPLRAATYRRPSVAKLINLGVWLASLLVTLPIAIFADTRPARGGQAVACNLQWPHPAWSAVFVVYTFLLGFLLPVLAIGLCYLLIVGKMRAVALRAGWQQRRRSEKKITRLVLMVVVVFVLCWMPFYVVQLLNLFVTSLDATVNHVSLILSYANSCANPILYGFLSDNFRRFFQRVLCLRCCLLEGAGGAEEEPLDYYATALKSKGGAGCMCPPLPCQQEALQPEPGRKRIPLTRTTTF
Experiment notes: NanoBRET screen HiBiT-SSTR4 in HEK293
Assay type: binding
Assay conditions: SSTR4; tracer 0.1μM
Measured quantity: NanoBRET Fold Response

INSERT INTO results (compound, result_number) VALUES
  ('CC(C)N(CC[C@H](c1ccccc1)c1cc(CCNC(=O)CCOCCOCCOCCOCCNC(=O)CCc2ccc3n2[B-](F)(F)[N+]2=C(c4ccc[nH]4)C=CC2=C3)ccc1O)C(C)C [Tolterodine-2-NB590]', 0.97),
  ('CC(C)N(CC[C@H](c1ccccc1)c1cc(CCNC(=O)c2ccc(CNC(=O)CCc3ccc4n3[B-](F)(F)[N+]3=C(c5ccc[nH]5)C=CC3=C4)cc2)ccc1O)C(C)C [Tolterodine-BZ-NB590]', 0.99),
  ('Cc1nc2n(c(=O)c1CCN1CCC(c3noc4cc(F)ccc34)CC1)CCCC2OC(=O)NCCOCCOCCOCCOCCNC(=O)CCc1ccc2n1[B-](F)(F)[N+]1=C(c3ccc[nH]3)C=CC1=C2 (centres unmarked) [Risperidone-2-NB590]', 1.03),
  ('Cc1cc2c(s1)Nc1ccccc1N=C2N1CCN(CCCNC(=O)CCOCCOCCOCCOCCNC(=O)CCc2ccc3n2[B-](F)(F)[N+]2=C(c4ccc[nH]4)C=CC2=C3)CC1 [Olanzapine-a-2-NB590]', 0.98),
  ('O=C(CCc1ccc2n1[B-](F)(F)[N+]1=C(c3ccc[nH]3)C=CC1=C2)NCCOCCOCCNC(=O)OCCOCCN1CCN(C2=Nc3ccccc3Sc3ccccc32)CC1 [Quetiapine-a-2-NB590]', 0.99);

* * *

Catalogue of compounds with associated NanoBRET Fold Response
Target or test system: LTB4R2 (Homo sapiens)
Construct: purchased Promega (in-house HiBiT-GPCR construct library, NanoBRET)
Sequence (Q9NPC1 whole entry): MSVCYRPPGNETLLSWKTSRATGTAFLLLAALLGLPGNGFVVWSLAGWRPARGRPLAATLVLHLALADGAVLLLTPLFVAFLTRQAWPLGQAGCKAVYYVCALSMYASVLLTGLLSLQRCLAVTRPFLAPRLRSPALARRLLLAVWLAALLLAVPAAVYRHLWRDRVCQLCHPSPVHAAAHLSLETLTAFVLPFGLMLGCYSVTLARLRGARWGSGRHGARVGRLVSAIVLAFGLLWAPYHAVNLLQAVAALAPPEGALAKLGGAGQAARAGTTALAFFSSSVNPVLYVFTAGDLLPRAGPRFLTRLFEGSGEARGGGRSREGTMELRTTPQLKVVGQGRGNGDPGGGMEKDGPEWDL
Experiment notes: NanoBRET screen HiBiT-LTB4R2 in HEK293
Type: binding
Assay conditions: LTB4R2; tracer 1μM
Measured quantity: NanoBRET Fold Response

INSERT INTO measurements (compound, measured_quantity, result_number) VALUES
  ('Cc1nc2n(c(=O)c1CCN1CCC(c3noc4cc(F)ccc34)CC1)CCCC2OC(=O)NCCOCCOCCOCCOCCNC(=O)CCc1ccc2n1[B-](F)(F)[N+]1=C(c3ccc[nH]3)C=CC1=C2 (stereo not drawn)', 'NanoBRET Fold Response', 0.94),
  ('COc1ccccc1N1CCN(CCCCN2C(=O)c3ccc(CNC(=O)CCOCCNC(=O)c4ccc(CNC(=O)CCc5ccc6n5[B-](F)(F)[N+]5=C(c7ccc[nH]7)C=CC5=C6)cc4)cc3C2=O)CC1', 'NanoBRET Fold Response', 1.30),
  ('O=C(CCc1ccc2n1[B-](F)(F)[N+]1=C(c3ccc[nH]3)C=CC1=C2)NCCOCCOCCNC(=O)OCCOCCN1CCN(C2=Nc3ccccc3Sc3ccccc32)CC1', 'NanoBRET Fold Response', 1.04);

* * *

Target or test system: OXER1 (Homo sapiens)
Construct: purchased Promega (in-house HiBiT-GPCR construct library, NanoBRET)
Sequence (Q8TDS5 whole entry): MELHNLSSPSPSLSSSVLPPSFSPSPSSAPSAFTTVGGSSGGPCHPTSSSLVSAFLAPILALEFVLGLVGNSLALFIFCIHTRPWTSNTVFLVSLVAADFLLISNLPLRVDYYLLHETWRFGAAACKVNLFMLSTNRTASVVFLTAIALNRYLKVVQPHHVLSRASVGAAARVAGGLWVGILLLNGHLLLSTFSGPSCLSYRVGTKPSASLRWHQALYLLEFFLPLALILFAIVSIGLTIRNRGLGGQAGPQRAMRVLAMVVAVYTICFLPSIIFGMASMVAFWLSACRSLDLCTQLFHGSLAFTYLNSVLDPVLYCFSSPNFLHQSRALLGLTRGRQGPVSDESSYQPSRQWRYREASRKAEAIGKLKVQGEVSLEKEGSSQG
Experiment notes: NanoBRET screen HiBiT-OXER1 in HEK293
Format: binding
Assay conditions: OXER1; tracer 0.1μM
Description: Each tracer candidate was screened across the entire library of HiBiT-GPCR constructs using NanoBRET as the detection modality. As depicted in Figure 4A, the specificity of interactions was evaluated through decrease in BRET due to competitive displacement of a bound tracer by excess parental compound. Each tracer was analyzed for binding to each HiBiT-GPCR fusion in the absence and in the presence of competing parental compound. […]
Measured quantity: NanoBRET Fold Response

INSERT INTO measurements (molecule, result_number) VALUES
  ('CC(C)N(CC[C@H](c1ccccc1)c1cc(CCNC(=O)c2ccc(CNC(=O)CCc3ccc4n3[B-](F)(F)[N+]3=C(c5ccc[nH]5)C=CC3=C4)cc2)ccc1O)C(C)C', 1.00),
  ('O=C(CCc1ccc2n1[B-](F)(F)[N+]1=C(c3ccc[nH]3)C=CC1=C2)NCCOCCOCCNC(=O)OCCOCCN1CCN(C2=Nc3ccccc3Sc3ccccc32)CC1', 0.99),
  ('COc1ccccc1N1CCN(CCCCN2C(=O)c3ccc(CNC(=O)CCOCCNC(=O)c4ccc(CNC(=O)CCc5ccc6n5[B-](F)(F)[N+]5=C(c7ccc[nH]7)C=CC5=C6)cc4)cc3C2=O)CC1', 1.34),
  ('O=C(CCOCCOCCOCCOCCNC(=O)CCc1ccc2n1[B-](F)(F)[N+]1=C(c3ccc[nH]3)C=CC1=C2)NCCCN1CCN(C2=Nc3ccccc3Oc3ccc(Cl)cc32)CC1', 0.93),
  ('Cc1nc2n(c(=O)c1CCN1CCC(c3noc4cc(F)ccc34)CC1)CCCC2OC(=O)NCCOCCOCCOCCOCCNC(=O)CCc1ccc2n1[B-](F)(F)[N+]1=C(c3ccc[nH]3)C=CC1=C2 (stereo not drawn)', 1.03),
  ('CCCn1c(=O)c2[nH]c(-c3ccc(OCC(=O)NCCNC(=O)CCOCCNC(=O)c4ccc(CNC(=O)CCc5ccc6n5[B-](F)(F)[N+]5=C(c7ccc[nH]7)C=CC5=C6)cc4)cc3)nc2n(CCC)c1=O', 1.04);

* * *

NanoBRET Fold Response: recorded values
Target or test system: CXCR2 (Homo sapiens)
Construct: purchased Promega (in-house HiBiT-GPCR construct library, NanoBRET)
Sequence (P25025 whole entry): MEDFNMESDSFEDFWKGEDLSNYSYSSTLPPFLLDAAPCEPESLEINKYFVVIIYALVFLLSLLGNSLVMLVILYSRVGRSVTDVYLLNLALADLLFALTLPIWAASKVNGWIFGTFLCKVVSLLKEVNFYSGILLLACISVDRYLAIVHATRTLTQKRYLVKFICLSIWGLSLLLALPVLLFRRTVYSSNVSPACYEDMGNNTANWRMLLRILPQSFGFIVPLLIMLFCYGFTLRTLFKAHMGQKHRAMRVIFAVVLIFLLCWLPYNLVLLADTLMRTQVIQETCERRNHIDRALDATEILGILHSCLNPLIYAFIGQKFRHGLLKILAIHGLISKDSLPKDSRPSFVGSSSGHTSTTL
Experiment notes: NanoBRET screen HiBiT-CXCR2 in HEK293
Type: binding
Assay conditions: CXCR2; tracer 0.1μM
Measured quantity: NanoBRET Fold Response

INSERT INTO assay_data (smiles_string, result_number) VALUES
  ('COc1ccccc1N1CCN(CCCCN2C(=O)c3ccc(CNC(=O)CCOCCOCCOCCOCCNC(=O)CCc4ccc5n4[B-](F)(F)[N+]4=C(c6ccc[nH]6)C=CC4=C5)cc3C2=O)CC1', 1.08),
  ('N#CN=C(NCCCOc1cccc(CN2CCCCC2)c1)NCCNC(=O)CCOCCOCCOCCOCCNC(=O)CCc1ccc2n1[B-](F)(F)[N+]1=C(c3ccc[nH]3)C=CC1=C2', 0.90),
  ('CCCn1c(=O)c2[nH]c(-c3ccc(OCC(=O)NCCNC(=O)CCOCCNC(=O)c4ccc(CNC(=O)CCc5ccc6n5[B-](F)(F)[N+]5=C(c7ccc[nH]7)C=CC5=C6)cc4)cc3)nc2n(CCC)c1=O', 1.22);

* * *

We begin with a simple list: items and their reported NanoBRET Fold Response.
Target or test system: ADRA2C (Homo sapiens)
Construct: purchased Promega (in-house HiBiT-GPCR construct library, NanoBRET)
Sequence (P18825 whole entry): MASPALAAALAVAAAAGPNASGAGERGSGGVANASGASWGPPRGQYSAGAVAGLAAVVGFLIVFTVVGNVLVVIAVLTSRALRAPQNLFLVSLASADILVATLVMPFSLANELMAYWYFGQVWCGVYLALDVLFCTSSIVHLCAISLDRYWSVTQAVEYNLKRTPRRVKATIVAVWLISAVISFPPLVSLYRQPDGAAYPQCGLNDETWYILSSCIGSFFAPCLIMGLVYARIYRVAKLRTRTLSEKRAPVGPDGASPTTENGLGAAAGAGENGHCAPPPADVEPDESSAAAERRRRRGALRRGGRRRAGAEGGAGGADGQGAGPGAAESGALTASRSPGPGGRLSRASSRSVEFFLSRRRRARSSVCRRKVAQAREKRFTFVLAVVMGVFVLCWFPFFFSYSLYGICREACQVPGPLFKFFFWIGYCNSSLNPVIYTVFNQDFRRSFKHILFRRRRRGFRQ
Experiment notes: NanoBRET screen HiBiT-ADRA2C in HEK293
Format: binding
Assay conditions: ADRA2C; tracer 1μM
Protocol: Each tracer candidate was screened across the entire library of HiBiT-GPCR constructs using NanoBRET as the detection modality. As depicted in Figure 4A, the specificity of interactions was evaluated through decrease in BRET due to competitive displacement of a bound tracer by excess parental compound. Each tracer was analyzed for binding to each HiBiT-GPCR fusion in the absence and in the presence of competing parental compound. […]
Measured quantity: NanoBRET Fold Response

INSERT INTO assay_data (compound, result) VALUES
  ('Cc1cc2c(s1)Nc1ccccc1N=C2N1CCN(CCCNC(=O)CCOCCOCCOCCOCCNC(=O)CCc2ccc3n2[B-](F)(F)[N+]2=C(c4ccc[nH]4)C=CC2=C3)CC1', 1.50),
  ('COc1ccccc1N1CCN(CCCCN2C(=O)c3ccc(CNC(=O)CCOCCOCCOCCOCCNC(=O)CCc4ccc5n4[B-](F)(F)[N+]4=C(c6ccc[nH]6)C=CC4=C5)cc3C2=O)CC1', 0.89),
  ('N#CN=C(NCCCOc1cccc(CN2CCCCC2)c1)NCCNC(=O)CCOCCOCCOCCOCCNC(=O)CCc1ccc2n1[B-](F)(F)[N+]1=C(c3ccc[nH]3)C=CC1=C2', 1.25),
  ('O=C(CCc1ccc2n1[B-](F)(F)[N+]1=C(c3ccc[nH]3)C=CC1=C2)NCCOCCOCCNC(=O)OCCOCCN1CCN(C2=Nc3ccccc3Sc3ccccc32)CC1', 1.42),
  ('O=C(CCc1ccc2n1[B-](F)(F)[N+]1=C(c3ccc[nH]3)C=CC1=C2)NCc1ccc(C(=O)NCCOCCC(=O)N[C@@H]2CC[C@@]3(O)[C@H]4Cc5ccc(O)c6c5[C@@]3(CCN4CC3CC3)[C@H]2O6)cc1 [Naltrexone-3-NB590]', 1.05),
  ('CCCn1c(=O)c2[nH]c(-c3ccc(OCC(=O)NCCNC(=O)CCOCCNC(=O)c4ccc(CNC(=O)CCc5ccc6n5[B-](F)(F)[N+]5=C(c7ccc[nH]7)C=CC5=C6)cc4)cc3)nc2n(CCC)c1=O', 1.20),
  ('Cc1nc2n(c(=O)c1CCN1CCC(c3noc4cc(F)ccc34)CC1)CCCC2OC(=O)NCCOCCOCCOCCOCCNC(=O)CCc1ccc2n1[B-](F)(F)[N+]1=C(c3ccc[nH]3)C=CC1=C2 (centres unmarked)', 1.37),
  ('CC(C)N(CC[C@H](c1ccccc1)c1cc(CCNC(=O)c2ccc(CNC(=O)CCc3ccc4n3[B-](F)(F)[N+]3=C(c5ccc[nH]5)C=CC3=C4)cc2)ccc1O)C(C)C', 1.11);
